- Tested on: K24384-001-R-PDC complex spheroids, viability
- assay.summary: Anticancer human tumor K24384-001-R-PDC patient-derived pancreatic adenocarcinoma cell line growth inhibition [GQUAD]
- run.conditions: second compound 1 µM; first compound 10 µM; active compounds read low
assay.readout: viability, T/C (%)
# unit: % | format: bare number

[[record]]
molecule = "O=C(NO)c1cnc(N2CCN(S(=O)(=O)c3ccc4ccccc4c3)CC2)nc1 + Cc1cnc(CNC(=O)c2c(=O)c3ccc(N4CCCN(C)CC4)nc3n3c2sc2ccccc23)cn1"
test_target = "K24384-001-R-PDC complex spheroids, viability"
result_units = "%"
numeric_value = 0.11

[[record]]
molecule = "CC1COCCN1c1cc(C2(O)CC3CCC(C2)O3)c2cnn(-c3ccn[nH]3)c2n1 (stereo not given) + Cc1cnc(CNC(=O)c2c(=O)c3ccc(N4CCCN(C)CC4)nc3n3c2sc2ccccc23)cn1"
test_target = "K24384-001-R-PDC complex spheroids, viability"
result_units = "%"
numeric_value = 8.33

[[record]]
molecule = "O=C(c1cc(Cc2n[nH]c(=O)c3ccccc23)ccc1F)N1CCN(C(=O)C2CC2)CC1 + CN(C)c1ccc(Nc2c3ccc(NC(=O)CCN4CCCC4)cc3nc3cc(NC(=O)CCN4CCCC4)ccc23)cc1"
test_target = "K24384-001-R-PDC complex spheroids, viability"
result_units = "%"
numeric_value = 71.2

[[record]]
molecule = "COc1cc(C2c3cc4c(cc3C(OC3OC5COC(C)OC5C(O)C3O)C3COC(=O)C23)OCO4)cc(OC)c1O (stereo not given) + CN(C)c1ccc(Nc2c3ccc(NC(=O)CCN4CCCC4)cc3nc3cc(NC(=O)CCN4CCCC4)ccc23)cc1"
test_target = "K24384-001-R-PDC complex spheroids, viability"
result_units = "%"
numeric_value = 38.5


Now examine the next entry.
Supply viability, T/C value. Item: CC1COCCN1c1cc(C2(S(C)(=N)=O)CC2)nc(-c2ccnc3[nH]ccc23)n1 (stereo not given) + Cc1cnc(CNC(=O)c2c(=O)c3ccc(N4CCCN(C)CC4)nc3n3c2sc2ccccc23)cn1
32.5

----------
- Test system: K24384-001-R-PDC complex spheroids, viability
- assay.summary: Anticancer human tumor K24384-001-R-PDC cell line growth inhibition [GQUAD];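 note: spheroids exposed to compounds for seven days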
- run.conditions: second compound 0.316 µM; first compound 0.00999 µM; active compounds read low
assay.readout: viability, T/C (%)
Respond numerically; units are % and should not be typed.

Illustrative cases are given below, each with its answer.
[[record]]
compound = "Cc1[nH]c2ccccc2c1CCNCc1ccc(/C=C/C(=O)NO)cc1 + Cc1[nH]c2ccc(F)cc2c1-c1nc2c3cccnc3c3ncccc3c2[nH]1"
test_target = "K24384-001-R-PDC complex spheroids, viability"
numeric_value = 101

[[record]]
compound = "CCc1c2c(nc3ccc(O)cc13)-c1cc3c(c(=O)n1C2)COC(=O)[C@]3(O)CC + Cc1[nH]c2ccc(F)cc2c1-c1nc2c3cccnc3c3ncccc3c2[nH]1"
test_target = "K24384-001-R-PDC complex spheroids, viability"
numeric_value = 47.5

[[record]]
compound = "Cn1ncnc1[C@H]1c2n[nH]c(=O)c3cc(F)cc(c23)N[C@@H]1c1ccc(F)cc1 + Cc1[nH]c2ccc(F)cc2c1-c1nc2c3cccnc3c3ncccc3c2[nH]1"
test_target = "K24384-001-R-PDC complex spheroids, viability"
numeric_value = 93

[[record]]
compound = "Cc1[nH]c2ccccc2c1CCNCc1ccc(/C=C/C(=O)NO)cc1 + CN(C)c1ccc(Nc2c3ccc(NC(=O)CCN4CCCC4)cc3nc3cc(NC(=O)CCN4CCCC4)ccc23)cc1"
test_target = "K24384-001-R-PDC complex spheroids, viability"
numeric_value = 95.3


Lab note: next compound to report on.
Consider the compound CCc1c2c(nc3ccc(O)cc13)-c1cc3c(c(=O)n1C2)COC(=O)[C@]3(O)CC + Cc1cnc(CNC(=O)c2c(=O)c3ccc(N4CCCN(C)CC4)nc3n3c2sc2ccccc23)cn1 and give its recorded viability, T/C.
38.2

This collection of values is drawn from PubChem BioAssay AID2060483.
